- assay target: T1, PUF4 RNA-binding domain (Saccharomyces cerevisiae, UniProt P25339 537-888)
- T1 sequence: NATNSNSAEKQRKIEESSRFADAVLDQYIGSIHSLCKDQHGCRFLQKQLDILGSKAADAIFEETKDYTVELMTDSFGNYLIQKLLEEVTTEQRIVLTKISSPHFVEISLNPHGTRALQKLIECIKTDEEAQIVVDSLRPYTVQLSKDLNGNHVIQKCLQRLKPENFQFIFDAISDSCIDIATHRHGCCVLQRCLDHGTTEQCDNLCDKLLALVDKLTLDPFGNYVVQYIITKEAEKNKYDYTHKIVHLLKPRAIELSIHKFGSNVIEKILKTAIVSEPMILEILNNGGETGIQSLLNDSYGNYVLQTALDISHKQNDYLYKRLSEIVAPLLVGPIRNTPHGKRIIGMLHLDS
- procedure details: Mg; RNA-MaP; 20 mM Na-HEPES pH 7.4, 30 mM KOAc, 0.75 mM MgCl2, 0.1% Tween-20, 5% glycerol, 0.1 mg/mL BSA, 2 mM DTT; 25 C; 0.0125-409.6 nM protein
- study conditions: tags: N-His6-TEV cleaved; C-SNAP kept, Cy3B-labelled; label: tethered on chip by stalled RNA polymerase
pKd: −log10 of the molar value.
observed property: pKd

binder	comparison operator	quantitative result
UCUCUUUGUAAUGUUAUCUCUU (ssRNA) [Ib_S1_P5E.1_K5.1_C5.1_H5.1_A5.1_[T5A]_[A7G]_F5.1_T5.1]	=	7.90
UCUCUUUGUAAAGCAUCUCUU (ssRNA) [Ic_S1_P4E.1_K4.1_C4.1_H4.1_A4.1_[T5A]_[T7G]_F4.1_[T8C]_T4.1]	=	6.41
Id_ii_S2_P4E.4_K4.3_C4.2_[C-2T]_[T-1C]_H4.3_A4.1_F4.1_T4.2_[G10C]_[T11C] (ssRNA) RNA: UUUGAUUAAUAUGAUAUCGUUCUUUCUUCACACUAUUACCUUCUUUCUCGAUAUCAUAUUAAUCUUU	<	5.64
Ic_S2_P4E.1_K4.1_C4.1_H4.1_A4.1_[T5G]_[A6T]_[T7A]_F4.1_[T8A]_[A9T]_T4.1 (ssRNA) RNA: UUUGAUUAAUAUGAUAUCGUUCUUUCUUGUAGUAAUUUCUUUCUCGAUAUCAUAUUAAUCUUU	=	6.47
Id_ii_S4_P3E.2_K3.1_C3.2_[C-2A]_H3.1_A3.1_F3.1_T3.2_[T9A]_[A10G] (ssRNA) RNA: UUUGACAACUGAUCGUUCUUUCUAUUGUAUAUAAGUUCUUUCUCGAUCAGUUGUCUUU	=	7.99
UCUCUUUGUACACUUCUCUU (ssRNA) [Ic_S1_P3E.1_K3.1_C3.1_H3.1_A3.1_[T5C]_F3.1_[T7C]_[A8T]_T3.1]	=	8.01
UCUCUUUGUAUGCUAUCUCUU (ssRNA) [Ib_S1_P4E.1_K4.1_C4.1_H4.1_A4.1_[A6G]_[T7C]_F4.1_T4.1]	=	8.10
Ic_S2_P5E.1_K5.1_C5.1_H5.1_A5.1_[T5A]_[T6A]_F5.1_[A10T]_T5.1 (ssRNA) RNA: UUUGAUUAAUAUGAUAUCGUUCUUUCUUGUAAAAUUUUUCUUUCUCGAUAUCAUAUUAAUCUUU	=	7.27
UCUCUUUUACACUUAUUAAAUCUCUU (ssRNA) [Id_ii_S1_P5E.4_K5.3_C5.2_[C-2T]_H5.3_A5.1_F5.1_T5.2_[T11A]]	<	5.64
UCUCUUUGUACUCCCUUCUCUU (ssRNA) [Ic_S1_P5E.1_K5.1_C5.1_H5.1_A5.1_[T5C]_[A7C]_F5.1_[T8C]_[T9C]_[A10T]_T5.1]	=	6.30
UCUCUUUGUAUGUAAAUCUCUU (ssRNA) [Ic_S1_P5E.1_K5.1_C5.1_H5.1_A5.1_[T6G]_[A7T]_F5.1_[T8A]_[T9A]_T5.1]	=	7.03
ACAAACCCACACUUAUUAUGACAAAC (ssRNA) [Id_ii_S3_P5E.4_K5.3_C5.2_[T-1C]_H5.3_A5.1_F5.1_T5.2_[A12G]]	<	5.64
UCUCUUUGUAAAUGAUCUCUU (ssRNA) [Ib_S1_P4E.1_K4.1_C4.1_H4.1_A4.1_[T5A]_F4.1_[T8G]_T4.1]	=	6.95
UCUCUUUCUGUAUAUACAUCUCUU (ssRNA) [Id_ii_S1_P3E.2_K3.1_C3.2_[C-2T]_[T-1C]_H3.1_A3.1_F3.1_T3.2_[T9C]]	=	7.64
Ib_S2_P3E.1_K3.1_C3.1_H3.1_[A4T]_A3.1_[A6T]_F3.1_T3.1 (ssRNA) RNA: UUUGAUUAAUAUGAUAUCGUUCUUUCUUGUUUUUAUUCUUUCUCGAUAUCAUAUUAAUCUUU	=	6.24
UCUCUUUGUGCUAUUAUCUCUU (ssRNA) [Ib_S1_P5E.1_K5.1_C5.1_H5.1_[A4G]_A5.1_[T5C]_F5.1_T5.1]	=	7.55
UCUCUUCCUGUAUAUUAGUUCUCUU (ssRNA) [Id_ii_S1_P4E.2_K4.1_C4.2_[T-1C]_H4.1_A4.1_F4.1_T4.2]	=	9.58
